Here, each record is paired with measured protein stability index data.
# System: Saccharomyces cerevisiae
# protocol-notes: protein stability index of tFT-peptide fusion (C-terminal peptide) (PSI (0-1 scale)); higher = more stable (slower turnover);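 further: PSI is a weighted mean of sequencing reads over stability bins, variants kept only with over 10 reads, mCherry proximal and sfGFP distal, peptide attached via GGGS linker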
# study-conditions: genetic background: wild type; temperature: 30 C
// return just the number, without any unit appended

Solved entries:
{"sequence": "VGVSEVGRGWAT", "protein stability index": 0.71}
{"sequence": "PSPPPAIFPFVS", "protein stability index": 0.71}

Request: Which measured protein stability index value corresponds to VSLLVFVVSSRV ?
Response: 0.382

Request: Continue with PSGHQAPEMQYL
Response: 0.667

====

# Tested on: Saccharomyces cerevisiae
# protocol-notes: protein stability index of tFT-peptide fusion (C-terminal peptide) (PSI (0-1 scale)); higher = more stable (slower turnover)
# study-conditions: genetic background: wild type; temperature: 30 C
quantity: protein stability index
Please respond with just the number, no unit label.

{"sequence": "YSIHYLRFFSLF", "test-value": 0.0874}
{"sequence": "KSTLVRILVFHV", "test-value": 0.303}

Request: Value wanted: protein stability index (Saccharomyces cerevisiae) of entry FRCRFLLPFYSV
Response: 0.438

Request: Can you check SNFDVRRLLVIQ next?
Response: 0.329

Request: What do you get for SLVPSIFLFRIF ?
Response: 0.307

Request: Would you mind doing CRLRYSILWFRL as well?
Response: 0.124

Request: Also need LVLSFVMLVSGH , thanks.
Response: 0.185

Request: Now try YCILGSYRLCVG .
Response: 0.252

Request: Moving on to the next sequence: WCGLFCRSVFVV
Response: 0.11

Request: Now try VSCLDLCFVISR .
Response: 0.514

Request: # iterate: ALRGLWFPFSCL
Response: 0.193

Request: Next sequence up: YVVYLQVCWMRS
Response: 0.104

Request: Same question for SMGVLITYLVQV please.
Response: 0.288

Request: Likewise for FILFSEMFASSV ?
Response: 0.255

Request: What do we get for PPSPAPLPDSLP ?
Response: 0.691
